- tested target: HLA-B*15:01
- experimental protocol: IEDB peptide-MHC binding, purified MHC/direct/fluorescence; filed as Kd, often an IC50 or EC50 that approximates it; bounds were set here for any values at or beyond the usual limits of such assays
- test context: source organism: Vibrio parahaemolyticus
reported metric: pKd
Just the number, please; pKd means minus log10 of the concentration in mol/L.

Given item MLDQFGVSY , the value recorded as its pKd is 6.84

* * *

- tested target: HLA-A*02:03
- experimental protocol: IEDB peptide-MHC binding, purified MHC/competitive/fluorescence; filed as Kd, often an IC50 or EC50 that approximates it; bounds were set here for any values at or beyond the usual limits of such assays
- test context: source organism: Giardia lamblia ATCC 50803
pKd: −log10 of the molar value.
reported metric: pKd

Documented pKd of DEYGPVFVE : ≤ 4.70

* * *

- tested target: HLA-A*29:02
- experimental protocol: IEDB peptide-MHC binding, purified MHC/competitive/radioactivity; filed as Kd, often an IC50 or EC50 that approximates it; bounds were set here for any values at or beyond the usual limits of such assays
- test context: source organism: Lymphocytic choriomeningitis virus (strain Armstrong)
reported metric: Kd

// field: Kd; key: ESFVRKQKY ; value = ≥ 65.1 µM

Per the record, FQPQNGQFI has Kd of ≥ 78.9 µM

* * *

- tested target: HLA-B*46:01
- experimental protocol: IEDB peptide-MHC binding, purified MHC/direct/fluorescence; filed as Kd, often an IC50 or EC50 that approximates it; bounds were set here for any values at or beyond the usual limits of such assays
- test context: source organism: Escherichia coli O157:H7
Hi there, I'd appreciate the recorded Kd for every entry that follows.

Reported HLA-B*46:01 Kd for item LLDPLYFEV was ≥ 20 µM

The value of Kd recorded for WLSVIAFGK when tested on HLA-B*46:01 reads ≥ 20 µM

* * *

- tested target: HLA-A*31:01
- experimental protocol: IEDB peptide-MHC binding, purified MHC/competitive/fluorescence; bounds were set here for any values at or beyond the usual limits of such assays
- test context: source organism: Pan troglodytes
reported metric: IC50

Looking up RPPYSSYGY , I found its IC50 recorded as ≥ 20 µM

* * *

- tested target: HLA-B*08:03
- experimental protocol: IEDB peptide-MHC binding, purified MHC/direct/fluorescence; filed as Kd, often an IC50 or EC50 that approximates it; bounds were set here for any values at or beyond the usual limits of such assays
- test context: source organism: Bacillus cereus NVH0597-99
reported metric: Kd

Form: sequence = REFEAQNVP ; Kd = ≥ 20 µM

* * *

- tested target: HLA-B*48:01
- experimental protocol: IEDB peptide-MHC binding, purified MHC/direct/fluorescence; filed as Kd, often an IC50 or EC50 that approximates it; bounds were set here for any values at or beyond the usual limits of such assays
- test context: source organism: Bacillus anthracis
pKd: −log10 of the molar value.
reported metric: pKd

Recorded pKd for REFEAQNVP on HLA-B*48:01 was ≤ 4.70

* * *

- tested target: HLA-B*18:01
- experimental protocol: IEDB peptide-MHC binding, purified MHC/competitive/fluorescence; filed as Kd, often an IC50 or EC50 that approximates it; bounds were set here for any values at or beyond the usual limits of such assays
- test context: source organism: Cryptosporidium parvum Iowa II
pKd: −log10 of the molar value.
reported metric: pKd

Reported pKd for RGRKPIFRK was ≤ 4.70

* * *

- tested target: HLA-B*46:01
- experimental protocol: IEDB peptide-MHC binding, purified MHC/competitive/fluorescence; filed as Kd, often an IC50 or EC50 that approximates it; bounds were set here for any values at or beyond the usual limits of such assays
- test context: source organism: Orthohantavirus sinnombreense
reported metric: Kd

Given the sequence YKSRCYVGL and test system HLA-B*46:01, the measured Kd is ≥ 20 µM

* * *

- tested target: HLA-A*03:01
- experimental protocol: IEDB peptide-MHC binding, purified MHC/direct/fluorescence; filed as Kd, often an IC50 or EC50 that approximates it; bounds were set here for any values at or beyond the usual limits of such assays
- test context: source organism: SARS-CoV1
reported metric: Kd (µM)
Lab book: enter the figure in µM, no units written.

// recorded Kd for KMSEYKGPV : 10.7

* * *

- tested target: HLA-A*31:01
- experimental protocol: IEDB peptide-MHC binding, purified MHC/direct/fluorescence; filed as Kd, often an IC50 or EC50 that approximates it; bounds were set here for any values at or beyond the usual limits of such assays
- test context: source organism: Camelpox virus CMS
reported metric: Kd

Reported Kd ( YYKDDISYF ) = ≥ 20 µM

* * *

- tested target: HLA-A*03:01
- experimental protocol: IEDB peptide-MHC binding, purified MHC/competitive/radioactivity; filed as Kd, often an IC50 or EC50 that approximates it; bounds were set here for any values at or beyond the usual limits of such assays
- test context: source organism: Vaccinia virus WR
// classify: if (Kd < 60 nM) t else f

Say whether its Kd is strictly beneath 60 nM. Entry: VSENTGMGMY
f

In plain terms, does FMDEIDHESY come in under 60 nM for Kd?
f

Identify whether the sequence MVDVSMMSMY records Kd below 60 nM.
f

In plain terms, does IVNEHDIKY come in under 60 nM for Kd?
t

Consider GLSLQDYCY . Does its Kd lie strictly below 60 nM?
f

Hello, is Kd of the following sequence strictly smaller than 60 nM? VLCVKKFYK
t

# check: Kd < 60 nM for VVRDFENYVK
t

Dear colleague, could you confirm whether Kd of TLNEYKQLY falls below 60 nM? Thanks.
t

Here's an entry: STDVNKQNK . Is its Kd below 60 nM?
f

Threshold test, Kd < 60 nM: YFISIYSRPK
f

is_below(Kd, 60 nM) for MLDTSEKYSK ?
f

Quick check: Kd of FIESSICLDY under 60 nM?
f

Could you please tell me whether Kd recorded for VLGLGLSLK is less than 60 nM?
t

Please determine if ILSDENYLLK is below 60 nM in terms of Kd.
t

* * *

- tested target: HLA-B*58:01
- experimental protocol: IEDB peptide-MHC binding, purified MHC/direct/fluorescence; filed as Kd, often an IC50 or EC50 that approximates it; bounds were set here for any values at or beyond the usual limits of such assays
- test context: source organism: Bacillus anthracis
reported metric: Kd

Kd in this record for REFEAQNVP : ≥ 20 µM

* * *

- tested target: HLA-B*46:01
- experimental protocol: IEDB peptide-MHC binding, purified MHC/direct/fluorescence; filed as Kd, often an IC50 or EC50 that approximates it; bounds were set here for any values at or beyond the usual limits of such assays
- test context: source organism: Giardia lamblia ATCC 50803
pKd: −log10 of the molar value.
reported metric: pKd

The reported value for LTIVFVPEV in terms of pKd is ≤ 4.70

* * *

Assignment: determine reported Kd for the given sequences.
- tested target: HLA-B*15:01
- experimental protocol: IEDB peptide-MHC binding, purified MHC/direct/fluorescence; filed as Kd, often an IC50 or EC50 that approximates it; bounds were set here for any values at or beyond the usual limits of such assays
- test context: source organism: Haemophilus influenzae

Entry YATVAGHEG , tested on HLA-B*15:01, has a reported Kd of 10.5 µM

With HLA-B*15:01 as the test system, EIKFNDITF showed Kd of ≥ 20 µM

* * *

- tested target: HLA-B*58:01
- experimental protocol: IEDB peptide-MHC binding, purified MHC/direct/fluorescence; filed as Kd, often an IC50 or EC50 that approximates it; bounds were set here for any values at or beyond the usual limits of such assays
- test context: source organism: Mammarenavirus machupoense
reported metric: Kd

In plain terms, FHEFLSSKL has a documented Kd of ≥ 20 µM

* * *

- tested target: HLA-A*29:02
- experimental protocol: IEDB peptide-MHC binding, purified MHC/competitive/radioactivity; filed as Kd, often an IC50 or EC50 that approximates it; bounds were set here for any values at or beyond the usual limits of such assays
- test context: source organism: Mammarenavirus guanaritoense
reported metric: Kd

PSLCRVNNSY yielded Kd of ≥ 20.1 µM

* * *

- tested target: HLA-A*29:02
- experimental protocol: IEDB peptide-MHC binding, purified MHC/competitive/fluorescence; filed as Kd, often an IC50 or EC50 that approximates it; bounds were set here for any values at or beyond the usual limits of such assays
- test context: source organism: Cryptosporidium parvum Iowa II
pKd: −log10 of the molar value.
reported metric: pKd

Entry RGRKPIFRK , tested on HLA-A*29:02, has a reported pKd of ≤ 4.70

* * *

Exercise: for every item that follows, state its recorded pKd.
- tested target: HLA-A*02:16
- experimental protocol: IEDB peptide-MHC binding, purified MHC/competitive/fluorescence; filed as Kd, often an IC50 or EC50 that approximates it; bounds were set here for any values at or beyond the usual limits of such assays
- test context: source organism: Human immunodeficiency virus 1
Kindly note that pKd refers to -log10 of the concentration in mol/L and answer with the value alone.

GET /value?item= AIIRILQQL &field=pKd returns 8.82

The measured pKd associated with SLADQLIHL reads 9.22

Reference source for all entries: the Immune Epitope Database (IEDB)
